FYI, the data here is from paper PMC5449454.

system tested: T1, biotinylated SOCS1 kinase inhibitory region (KIR) peptide (also: biotinylated (position not given here))
T1 construct: Captured by its biotin on streptavidin-coated sensor chips and plates; An unbiotinylated KIR peptide was run over the immobilised anti-dsDNA IgG only; also called SOCS1-KIR; biotinylated KIR peptide; source: synthetic peptide (Sangon Biotech Company)
T1 peptide: DTHFRTFRSHSDYRRI
assay: SPR; Biacore 3000; biotinylated KIR peptide (5 nM) immobilised on a streptavidin-coated sensor chip, JAK2 loop peptide injected at 0-250 nM; simple Langmuir model (A + B ↔ AB)
assay context: both partners purified
Where no end group is shown, it is not given here.
value type: pKd
One number for each entry, as −log10 of the molar value.

Task item: Look at this binder and give its reported pKd. LPQDKEYYKVKEP (loop region of Janus kinase 2 (JAK2), 13-mer, 1.64 kDa; the SPR methods name the 'JAK2 loop peptide' without a label; source: synthetic peptide (Sangon Biotech Company)) [JAK2 loop peptide]
Reply: 7.35
